Test system: LXFS538
Assay: In vitro cytotoxicity against human tumor xenograft LXFS 538 small cell lung carcinoma
Type: functional

molecule: CCCCCCCCCCCCCCCCOP(=O)([O-])OCC[N+]1(C)CCCCC1
qual: =
IC70 (µg/mL): 1.9
//
molecule: CCCCCCCCCCCCCCCCOCCOP(=O)([O-])OCC[N+]1(C)CCOCC1
qual: =
IC70 (µg/mL): 5.12
//
molecule: CCCCCCCCCCCCCCOCCOP(=O)([O-])OCC[N+]1(C)CCOCC1
qual: =
IC70 (µg/mL): 5.85
//
molecule: CCCCCCCCCCCCCCCCOP(=O)([O-])OCC[N+](C)(C)C [MILTEFOSINE]
qual: >
IC70 (µg/mL): 10
//
molecule: CCCCCCCCCCCCCCCCOCCOP(=O)([O-])OCC[N+]1(C)CCCCC1
qual: =
IC70 (µg/mL): 4.54

----------
Target: Cyclin-dependent kinase 1 (starfish)
Test: Inhibition of Cell division cycle 2 (cdc2) kinase
pIC50: −log10 of the molar value.

smiles structure: CCCCCCCCCCCCCCOP(=O)([O-])OCC[N+]1(C)CCCCC1
pIC50: < 3.00

----------
System: OVXF1023 cell line
Test: In vitro cytotoxicity against human tumor xenograft OVXF1023 ovarian adenocarcinoma
Format: functional

smiles structure: CCCCCCCCCCCCCCOCCOP(=O)([O-])OCC[N+]1(C)CCOCC1
IC70: > 10 µg/mL
//
smiles structure: CCCCCCCCCCCCCCCCOCCOP(=O)([O-])OCC[N+]1(C)CCOCC1
IC70: > 10 µg/mL
//
smiles structure: CCCCCCCCCCCCCCCCOCCOP(=O)([O-])OCC[N+]1(C)CCCCC1
IC70: > 10 µg/mL
//
smiles structure: CCCCCCCCCCCCCCCCOP(=O)([O-])OCC[N+](C)(C)C
IC70: > 10 µg/mL
//
smiles structure: CCCCCCCCCCCCCCCCOP(=O)([O-])OCC[N+]1(C)CCCCC1
IC70: 7.8 µg/mL

----------
Target: M-phase inducer phosphatase 1 (Homo sapiens, UniProt P30304)
Sequence (P30304 whole entry): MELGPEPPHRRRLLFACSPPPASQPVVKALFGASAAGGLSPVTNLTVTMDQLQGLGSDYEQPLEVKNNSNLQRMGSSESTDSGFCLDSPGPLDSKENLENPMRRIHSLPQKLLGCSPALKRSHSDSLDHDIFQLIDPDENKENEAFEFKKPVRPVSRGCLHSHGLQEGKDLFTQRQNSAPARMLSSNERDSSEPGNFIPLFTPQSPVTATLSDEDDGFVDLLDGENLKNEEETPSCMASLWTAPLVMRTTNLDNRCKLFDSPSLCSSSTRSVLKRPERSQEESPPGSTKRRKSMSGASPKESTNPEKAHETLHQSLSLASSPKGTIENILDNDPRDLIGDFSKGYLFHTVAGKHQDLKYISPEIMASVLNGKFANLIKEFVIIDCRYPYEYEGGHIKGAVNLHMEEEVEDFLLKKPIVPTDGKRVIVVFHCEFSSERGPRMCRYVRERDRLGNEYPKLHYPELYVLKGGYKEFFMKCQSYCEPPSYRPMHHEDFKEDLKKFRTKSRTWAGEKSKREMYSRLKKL
Lab note - cut at 300 µM for IC50: criterion met if strictly below, criterion not met if not.

smiles structure: CCCCCCCCCCCCCCCCOCCOP(=O)([O-])OCC[N+]1(C)CCCCC1
measured on: M-phase inducer phosphatase 1 (Homo sapiens, UniProt P30304)
classification: criterion met
--
smiles structure: CCCCCCCCCCCCOP(=O)([O-])OCC[N+]1(C)CCOCC1
measured on: M-phase inducer phosphatase 1 (Homo sapiens, UniProt P30304)
classification: criterion not met
--
smiles structure: CCCCCCCCCCCCCCCCOP(=O)([O-])OCC[N+]1(C)CCCCC1
measured on: M-phase inducer phosphatase 1 (Homo sapiens, UniProt P30304)
classification: criterion not met
--
smiles structure: CCCCCCCCCCCCCCOCCOP(=O)([O-])OCC[N+]1(C)CCOCC1
measured on: M-phase inducer phosphatase 1 (Homo sapiens, UniProt P30304)
classification: criterion not met
